system: SNB-75 CNS; experiment: NCI tumour cell line growth inhibition, 48 h; in the data active means GI50 below about 0.43 µM; inactive means the rest
Respond only with the outcome that fits, drawn from true (1) = active, false (0) = inactive

These solved cases illustrate the format of a correct answer.
CCOC(=O)Cc1csc(NC(=O)COC(=O)c2ccc(N)cc2)n1 | false (0)
CC1OC(OC2C(O)C(OCCc3ccc(O)c(O)c3)OC(CO)C2OC(=O)/C=C/c2ccc(O)c(O)c2)C(O)C(O)C1OC1OCC(O)(CO)C1O (stereo not given) | false (0)
COc1cccc2c1C(=O)c1c(O)c3c(c(O)c1C2=O)CC(O)(/C(C)=N/NC(=O)CCCCC(=O)N/N=C(\C)C1(O)Cc2c(O)c4c(c(O)c2C(OC2CC(N)C(O)C(C)O2)C1)C(=O)c1c(OC)cccc1C4=O)CC3OC1CC(N)C(O)C(C)O1 (stereo not given) | true (1)

Q: Hello, I am checking results. What call was entered for COC(=O)C1=C(OC(=O)c2ccccc2)C(C(=O)OC)[C@]2(O)[C@@H](C(=O)OC)C1CC(c1ccccc1OC)[C@@H]2C(=O)OC (stereo not given in full) ?
Result: false (0)

Q: Could you kindly confirm the outcome this assay logged for COc1ncc(-c2ccc3nccc(C#CCCCCC(=O)O)c3c2)cc1NS(=O)(=O)c1ccc(F)cc1F ?
Result: true (1)

Q: // param item: O=C(/C=C/c1cc2ccccc2[nH]c1=O)c1ccc(Cl)cc1 ; yields the recorded call
Result: false (0)

Q: Which outcome was entered for the molecule O=C1c2ccccc2C(=O)c2c1c(=O)c(=O)c1ccccc1c(=O)n2Cc1ccccc1 in this test?
Result: false (0)

Q: Query: recorded result category for COc1ccc(-c2nnc(COc3ccc(Cl)cc3Cl)o2)cc1OC in this test
Result: false (0)

Q: Lab log entry: N#Cc1c(-c2ccc(Cl)cc2)csc1NC(=O)Nc1ccc(Cl)c(C(F)(F)F)c1 — outcome as called in the assay?
Result: false (0)

Q: State the result this test recorded for COc1cc(C(=O)c2c(-c3ccccc3)oc3c(OC)cccc23)cc(OC)c1O .
Result: true (1)

###

tested on: HS 578T breast; assay: NCI tumour cell line growth inhibition, 48 h
Reported GI50 by item:

N#C/C(=C\c1cn(Cc2ccccc2)c2ccccc12)C(=O)Nc1ncc(Cc2ccccc2Cl)s1 | 1.93 µM
CCCSc1ccc2nc(NC(=O)OC)[nH]c2c1 | 0.378 µM
C=C1C(=O)O[C@H]2[C@H]1CC/C(CNC(=O)c1cccc3ccccc13)=C\CC[C@@]1(C)O[C@@H]21 | 6.22 µM

Would you kindly look at the next entry?
Q: GI50 for O=[N+]([O-])c1ccc(C(Br)c2ccc([N+](=O)[O-])cc2)cc1 ?
Result: 17.9 µM

###

system: COLO 205 colon; test: NCI tumour cell line growth inhibition, 48 h
measured-metric: TGI

Worked examples follow.
COc1cc(C)c2c(c1C=O)Oc1c(c(C)c(O)c3c1C(O)OC3=O)OC2=O (stereo not drawn) | > 100 µM
COc1cc(/C=C2/SC(c3ccccc3)N(c3cccc(NC(C)=O)c3)C2=O)cc(OC)c1OC (stereo not drawn) | > 100 µM
COC(=O)C1C(O)C(C)C(=O)C(C)/C=C\C=C(C)C(=O)Nc2c(C)c(OC(C)=O)c3c(c2O)C(=O)C(C)=C2OCOC(=C23)C(C)=CC(C)(O)C(O)C(C)C1O (stereo not drawn) | 49.3 µM
CC(CCOc1c2ccoc2cc2oc(=O)ccc12)C1=CC(=O)C(C)(C)O1 (stereo not drawn) | > 100 µM
O=Cc1c(O)ccc2ccc(O)c(-c3c(O)ccc4ccc(O)cc34)c12 | > 100 µM
COc1ccc(-c2csc(-n3c(-c4ccccc4)nc4c(Br)cc(Br)cc4c3=O)n2)cc1 | > 100 µM

Q: Query (compound): COc1ncc(-c2ccc3nccc(C#CCCCCC(=O)O)c3c2)cc1NS(=O)(=O)c1ccc(F)cc1F ; field requested: TGI
Result: 30.2 µM

Q: Value lookup for TGI; key = O=C1CSC(c2ccccc2O)N1c1ccc(-c2ccc(-n3c(-c4ccccc4)nc4ccccc4c3=O)cc2)cc1 (stereo not drawn)
Result: 44.9 µM

Q: Form field: reported TGI of CN(NC(=O)/C(=C/c1ccc(Cl)cc1)NC(=O)c1ccccc1)c1cn[nH]c(=O)c1Cl
Result: > 100 µM

Q: Reported TGI, compound O=[N+]([O-])c1ccc2[nH]c3c(-c4ccccc4)nccc3c2c1 : ____
Result: > 86.8 µM

Q: // query TGI value for entry CCc1c(-c2ccc(OC)cc2)c(=O)oc2cc(O)ccc12
Result: 97.1 µM

Q: Fill in: TGI of O=C(Nc1ccc(-n2cc(-c3ccncc3)c(-c3ccc(O)c(Cl)c3)n2)cc1)c1cc(C(F)(F)F)cc(C(F)(F)F)c1 is ___
Result: > 25 µM

Q: What value of TGI has been recorded for this entry: CC(C)/C(Cl)=N\OC(=O)Nc1ccc(F)cc1
Result: 4.42 µM

Q: Any idea what its TGI is? The compound is Fc1c(F)c(F)c2c(c1F)CSc1nc3ccccc3n1-2
Result: > 100 µM

Cited source for all entries: PubChem BioAssay (NCI)
